All figures here come from patent US20230348418A1.

# systemName: Full length wild-type cereblon CRBN (Homo sapiens)
# Construct: Full length wild-type cereblon CRBN (80.0 nM, 10 μL) was incubated in assay buffer
# Sequence (Q96SW2 whole entry): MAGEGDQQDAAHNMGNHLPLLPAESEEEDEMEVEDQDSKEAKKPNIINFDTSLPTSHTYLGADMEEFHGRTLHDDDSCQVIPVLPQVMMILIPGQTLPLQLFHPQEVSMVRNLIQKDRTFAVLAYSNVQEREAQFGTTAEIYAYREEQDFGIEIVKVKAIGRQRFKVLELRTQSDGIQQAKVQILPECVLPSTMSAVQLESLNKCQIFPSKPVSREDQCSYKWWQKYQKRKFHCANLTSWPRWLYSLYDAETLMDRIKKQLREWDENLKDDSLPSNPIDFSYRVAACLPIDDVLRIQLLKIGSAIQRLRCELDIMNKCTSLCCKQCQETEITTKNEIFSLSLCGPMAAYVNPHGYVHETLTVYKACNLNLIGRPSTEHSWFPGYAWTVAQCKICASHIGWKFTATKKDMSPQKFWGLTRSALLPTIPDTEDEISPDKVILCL
# experiment: Fluorescence polarization (FP) assay, cereblon binding
# recordedConditions: cereblon binding, class code; read-out: rFP IC50
pIC50: −log10 of the molar value.
Would you kindly list pIC50 for each of these compounds?

Study these solved cases before continuing.
>>> print(df.to_string())
                                   compound  recordedmeasurement
0  COc1cc(C)c(Cl)cc1NC(=O)OCc1ccc2c(c1)C(=O)N(C1CCC(=O)NC1=O)C2 (stereo not shown)         5.77 to 5.96
1  O=C1CCC(N2Cc3ccc(COC(=O)N4CCCC4)cc3C2=O)C(=O)N1 (stereo not shown)         5.96 to 6.30
2  O=C1CCC(N2Cc3ccc(COC(=O)Nc4ccc5c(c4)OCCC5)cc3C2=O)C(=O)N1 (stereo not shown)         5.96 to 6.30

Below are 2 compounds. Give each one its pIC50.
1. O=C1CCC(N2Cc3ccc(COC(=O)Nc4cc(CN5CCOCC5)cc(OC(F)F)c4)cc3C2=O)C(=O)N1 (stereo not shown)
2. CC1CCCCN1c1ccc(NC(=O)OCc2ccc3c(c2)C(=O)N(C2CCC(=O)NC2=O)C3)cn1 (stereo not shown)

5.77 to 5.96
5.96 to 6.30

For each of the compounds below, state pIC50.
1. O=C1CCC(N2Cc3ccc(COC(=O)Nc4cccc(OC5CC5)c4)cc3C2=O)C(=O)N1 (stereo not shown)
2. O=C1CCC(N2Cc3ccc(COC(=O)NC4CCCC4)cc3C2=O)C(=O)N1 (stereo not shown)
3. O=C1CCC(N2Cc3ccc(COC(=O)Nc4cc(F)cc(Cl)c4)cc3C2=O)C(=O)N1 (stereo not shown)
4. O=C1CCC(N2Cc3ccc(COC(=O)Nc4ccc(C5CCC5)nc4)cc3C2=O)C(=O)N1 (stereo not shown)
5. O=C1CCC(N2Cc3ccc(COC(=O)NC4CCCCC4)cc3C2=O)C(=O)N1 (stereo not shown)
6. O=C1CCC(N2Cc3ccc(COC(=O)Nc4cc(CN5CC6CC5CO6)cc(OC(F)F)c4)cc3C2=O)C(=O)N1 (stereo not shown)
7. CC1(c2ccc(NC(=O)OCc3ccc4c(c3)C(=O)N(C3CCC(=O)NC3=O)C4)cc2)COC1 (stereo not shown)

["5.96 to 6.30", "5.96 to 6.30", "5.77 to 5.96", "5.96 to 6.30", "5.77 to 5.96", "5.96 to 6.30", "5.96 to 6.30"]

Below is a list of compounds. For each, state its recorded pIC50.
1. Cc1cc(NC(=O)OCc2ccc3c(c2)C(=O)N(C2CCC(=O)NC2=O)C3)cc(C)n1 (stereo not shown)
2. CC1(C)COc2cc(NC(=O)OCc3ccc4c(c3)C(=O)N(C3CCC(=O)NC3=O)C4)ccc21 (stereo not shown)
3. O=C1CCC(N2Cc3ccc(COC(=O)NCc4ccccc4)cc3C2=O)C(=O)N1 (stereo not shown)
4. O=C1CCC(N2Cc3ccc(COC(=O)Nc4cc(OCCN5CCOCC5)cc(OC(F)F)c4)cc3C2=O)C(=O)N1 (stereo not shown)
5. CC(C)(C)c1ccc(NC(=O)OCc2ccc3c(c2)C(=O)N(C2CCC(=O)NC2=O)C3)nc1 (stereo not shown)

1: 5.96 to 6.30; 2: 5.96 to 6.30; 3: 5.96 to 6.30; 4: 5.77 to 5.96; 5: 5.96 to 6.30

Hey, quick one: what's pIC50 for each of these?
1. CC(C)(C)c1ccc(NC(=O)OCc2ccc3c(c2)C(=O)N(C2CCC(=O)NC2=O)C3)c(F)c1 (stereo not shown)
2. O=C1CCC(N2Cc3ccc(COC(=O)Nc4cnc5c(c4)CCC5)cc3C2=O)C(=O)N1 (stereo not shown)
3. Cc1cc(F)c(NC(=O)OCc2ccc3c(c2)C(=O)N(C2CCC(=O)NC2=O)C3)cc1Cl (stereo not shown)
4. Cc1c(Cl)cc(NC(=O)OCc2ccc3c(c2)C(=O)N(C2CCC(=O)NC2=O)C3)cc1OCC1CCNC1 (stereo not shown)

["5.96 to 6.30", "5.96 to 6.30", "5.96 to 6.30", "5.96 to 6.30"]

Give pIC50 for each listed item.
1. Cc1c(Cl)cc(NC(=O)OCc2ccc3c(c2)C(=O)N(C2CCC(=O)NC2=O)C3)cc1OCCN1CCOCC1 (stereo not shown)
2. Cc1cc(Cl)cc(NC(=O)OCc2ccc3c(c2)C(=O)N(C2CCC(=O)NC2=O)C3)c1 (stereo not shown)
3. CCOc1cc(NC(=O)OCc2ccc3c(c2)C(=O)N(C2CCC(=O)NC2=O)C3)ccc1C (stereo not shown)
4. CC(F)(F)c1ccc(NC(=O)OCc2ccc3c(c2)C(=O)N(C2CCC(=O)NC2=O)C3)cc1 (stereo not shown)
5. O=C1CCC(N2Cc3ccc(COC(=O)Nc4cc(OCCN5CCOCC5)cc(OC(F)(F)F)c4)cc3C2=O)C(=O)N1 (stereo not shown)
6. Cc1c(Cl)cc(NC(=O)OCc2ccc3c(c2)C(=O)N(C2CCC(=O)NC2=O)C3)cc1CN1CCOCC1 (stereo not shown)
7. Cc1cc(NC(=O)OCc2ccc3c(c2)C(=O)N(C2CCC(=O)NC2=O)C3)cnc1-c1ccccc1 (stereo not shown)

1. 5.77 to 5.96
2. 5.77 to 5.96
3. 5.96 to 6.30
4. 5.77 to 5.96
5. 5.96 to 6.30
6. 5.96 to 6.30
7. 5.96 to 6.30

Each compound below has a recorded value; state its pIC50.
1. Cc1ccc(NC(=O)OCc2ccc3c(c2)C(=O)N(C2CCC(=O)NC2=O)C3)cc1F (stereo not shown)
2. O=C1CCC(N2Cc3ccc(COC(=O)Nc4cnc(N5CCCCC5)c(F)c4)cc3C2=O)C(=O)N1 (stereo not shown)
3. COc1cc(NC(=O)OCc2ccc3c(c2)C(=O)N(C2CCC(=O)NC2=O)C3)cnc1C (stereo not shown)

1. 5.96 to 6.30
2. 5.96 to 6.30
3. 5.96 to 6.30
